Field: inhibition. Provide a value for each of the molecules that follow.
- assay-overview: M. tuberculosis growth inhibition, HTS (AID 449762);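 note: bacterial growth assessed after seven days of incubation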
- details: M. tuberculosis H37Rv growth inhibition, 7H9 media; at 25 µM; active compounds read high
The whole screen tested about 330,000 compounds, of which about 1,900 (0.58%) were called active. About 4% were inconclusive and are not listed. The list is a sample of the results. Results with a measured potency or affinity are listed apart.
Numbers only, in %.

The cases that follow already have their inhibition on record.
* COc1ccccc1N1CCN(CCCCOc2c(OC)cccc2OC)CC1 | 4.13
* O=C(C1=C[C@H](c2csc3ccccc23)C[C@H](OCCCCO)O1)N1CCN(Cc2ccc3c(c2)OCO3)CC1 | 59.9
* O=C(CCCC(=O)OCC(=O)c1ccc(Cl)cc1)NC1CCCCC1 | 30.8
* Cc1ccc(NC(=O)c2ccc(OCC3CCCO3)cc2)nc1 (configuration not stated) | 16.9
* COc1ccnc(Oc2ccc(F)cc2)c1C(=O)N/C=N/OCc1cccc(F)c1 | 24.6
* CCC(=O)N1N=C(c2ccc(NS(=O)(=O)c3ccccc3)cc2)CC1c1ccco1 (configuration not stated) | 1.78
* O=C(c1ccccc1)c1nn(-c2ccccc2)c(=O)cc1C(F)(F)F | 13.9
* Cc1sc2ncnc(Sc3nc4ccccc4s3)c2c1C | -4.93
* COc1ccc(S(=O)(=O)N(C)C[C@H]2Oc3c(NC(=O)NC(C)C)cccc3C(=O)N([C@H](C)CO)C[C@@H]2C)cc1 | -6.16
* COc1ccc2ccc3c(c2c1)N=CC1(O3)N(C)c2ccccc2C1(C)C (configuration not stated) | -4.4

I'm hoping you can list inhibition for every molecule here, please.
1. O=C(COC(=O)c1ccc2c(c1)C(=O)N(CCc1ccccc1)C2=O)Nc1ccc(OC(F)F)cc1
2. C#C[C@]1(O)CC[C@H]2[C@@H]3CCc4cc(O)ccc4[C@H]3CC[C@@]21C

Output:
-2.61
2.29

* * *

Field: inhibition. Provide a value for each of the molecules that follow.
- assay-overview: M. tuberculosis growth inhibition, HTS (AID 449762);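 note: bacterial growth assessed after seven days of incubation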
- details: M. tuberculosis H37Rv growth inhibition, 7H9 media; at 25 µM; active compounds read high
The campaign covered roughly 330,000 compounds. About 1,900 (0.58%) were called active. Roughly 4% stayed inconclusive and do not appear here. Not all results are given here. Entries with a potency or affinity are not part of this list.
One number for each entry, in %.

The cases that follow already have their inhibition on record.
• C=CCSC1=N/C(=C/c2ccsc2)C(=O)N1c1ccccc1 = -5.05
• CCOC(=O)C1CCCc2c1[nH]c1c(C(=O)O)cccc21 (centres undefined) = 9.6
• CCCCCCCN1C(N(C)C)=NC[C@@H]1Cc1ccccc1 = 1.63
• Cc1ccc(C(=O)NNC(=O)c2cccc(C)c2)cc1 = -4.89
• Cc1ccc(S(=O)(=O)N2CCCCC2)cc1NC(=O)COC(=O)c1ccccc1F = -3.82
• CCCCN1C(=N)N([C@@H](C)CN2CCC[C@H]2CN2C(N)=NC[C@H]2CC(C)C)C[C@H]1[C@H](C)CC = -9.24

I'm hoping you can list inhibition for every molecule here, please.
1. COc1ccc(CCC(C)NC(=O)CCc2ccccc2)c(OC)c1 (centres undefined)
2. CCCCC(=O)NC(Nc1sc2c(c1C(N)=O)CCCC2)(C(=O)OCC)C(F)(F)F (centres undefined)
3. N#Cc1cccc2c1-c1ccccc1/C2=N/NC(N)=S
4. CCN(CC(=O)Nc1c(F)cccc1F)C(=O)c1ccc2c(c1)OCO2
5. O=c1c2c(-c3ccccc3)csc2ncn1/N=C/c1cccc([N+](=O)[O-])c1O
6. CCC(=O)NC(=S)Nc1ccc(OC)cc1OC
7. CC1=C(C(N)=O)C(c2ccccc2F)NC(=O)N1 (centres undefined)
8. O=C(CCc1nc(-c2ccccc2)c(-c2ccccc2)o1)OCc1ccc(Br)cc1

Output:
4.05
5.17
11.6
-12.6
0.37
2.55
-4.59
70.2

I'm hoping you can list inhibition for every molecule here, please.
1. CC(C)CCN1CC(=O)N2[C@@H](Cc3c([nH]c4ccccc34)C2(C)C)C1=O
2. NS(=O)(=O)c1ccc(-c2ccc(/C=C3\C(=O)Nc4ccccc43)o2)cc1
3. NC(=O)N/N=C1\c2ccccc2-c2c(C(N)=O)cccc21

Output:
[1.66, -2.7, -8.45]

I'm hoping you can list inhibition for every molecule here, please.
1. O=S(=O)(c1ccc(N2CC=C(c3ccccc3)CC2)nc1)N1CCCC1
2. O=C1CCCC2=C1C(c1ccccc1)C1C(=O)c3ccccc3C1=N2 (centres undefined)
3. N#CC(C(=O)O)=C1CCCC1
4. Cc1ccc(CSc2nnc(CCNC(=O)OC(C)(C)C)o2)cc1
5. Cc1ccc(C=C2C(=O)c3ccccc3C2=O)o1

Output:
-10.8
0.55
-4.52
6.64
-3.84

I'm hoping you can list inhibition for every molecule here, please.
1. COc1ccc(/C=N/NC(=O)CSCc2ccc([N+](=O)[O-])cc2)cc1OC
2. Cc1nc(-n2nnc3ccccc32)c2c3c(sc2n1)CCCC3
3. CCc1ccc2c(c1)[C@]1(C(=O)N2)[C@@H]2C(=O)N(Cc3ccccc3)C(=O)[C@@H]2[C@@H]2CCCN21
4. Cc1ccc(-n2nc3c(N4CCC(C(=O)NCCc5ccccc5C)CC4)nnc(C)c3c2C)cc1

Output:
1. -9.89
2. 4.15
3. -2.59
4. 5.89
